Where do the numbers come from? From patent EP4817631A2.

The reader will find reported Kd values listed item by item below.
molecular target: Rat RGMa-His (rat) (UniProt D4A188); assay: affinity KD as listed in Table 4 (equals BIAcore value of Table 5)
Answer format: numeric, nM implied, no suffix.

h5F9.AM11 (antibody, V domains shown, also called RGMA-h5F9AM; 11; RGMA-h5F9pJP302/pJP 303 hIgG1/K mut) VH: EVQLVESGGGLVQPGGSLRLSCAASGFTFSNYGMNWVRQAPGKGLEWVSMIYYDSSEKHYADSVKGRFTISRDNSKNTLYLQMNSLRAEDTAVYYCAKGTTPDYWGQGTMVTVSS VL: DVVLTQSPLSLPVTLGQPASISCRSSQSLEDSDGGTFLEWFQQRPGQSPRLLIYDVSSRFSGVPDRFSGSGSGTDFTLKISRVEAEDVGVYYCFQATHDPLSFGQGTKLEIK = 0.074

Consider now this further binder.
The binder h5F9.AM9 (antibody, V domains shown, also called RGMA-h5F9AM.9; RGMA-h5F9pJP297/pJP 299 hIgG1/K mut) VH: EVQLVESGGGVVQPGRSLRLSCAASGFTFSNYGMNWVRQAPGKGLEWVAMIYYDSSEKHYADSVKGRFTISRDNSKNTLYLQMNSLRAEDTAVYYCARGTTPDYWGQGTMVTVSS VL: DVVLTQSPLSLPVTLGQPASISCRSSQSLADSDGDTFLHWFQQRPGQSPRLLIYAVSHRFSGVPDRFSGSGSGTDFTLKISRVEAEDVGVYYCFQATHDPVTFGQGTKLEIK showed Kd equal to 0.31
